biological target: human ether-à-go-go-related gene (hERG) potassium channel (human, UniProt Q12809); assay: primary screen, population patch clamp on CHO cells stably expressing hERG; higher = less effect of the substance;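 note: peak tail current of the secondary pulse compared with the same well before compound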
Sequence (Q12809 whole entry, looked up): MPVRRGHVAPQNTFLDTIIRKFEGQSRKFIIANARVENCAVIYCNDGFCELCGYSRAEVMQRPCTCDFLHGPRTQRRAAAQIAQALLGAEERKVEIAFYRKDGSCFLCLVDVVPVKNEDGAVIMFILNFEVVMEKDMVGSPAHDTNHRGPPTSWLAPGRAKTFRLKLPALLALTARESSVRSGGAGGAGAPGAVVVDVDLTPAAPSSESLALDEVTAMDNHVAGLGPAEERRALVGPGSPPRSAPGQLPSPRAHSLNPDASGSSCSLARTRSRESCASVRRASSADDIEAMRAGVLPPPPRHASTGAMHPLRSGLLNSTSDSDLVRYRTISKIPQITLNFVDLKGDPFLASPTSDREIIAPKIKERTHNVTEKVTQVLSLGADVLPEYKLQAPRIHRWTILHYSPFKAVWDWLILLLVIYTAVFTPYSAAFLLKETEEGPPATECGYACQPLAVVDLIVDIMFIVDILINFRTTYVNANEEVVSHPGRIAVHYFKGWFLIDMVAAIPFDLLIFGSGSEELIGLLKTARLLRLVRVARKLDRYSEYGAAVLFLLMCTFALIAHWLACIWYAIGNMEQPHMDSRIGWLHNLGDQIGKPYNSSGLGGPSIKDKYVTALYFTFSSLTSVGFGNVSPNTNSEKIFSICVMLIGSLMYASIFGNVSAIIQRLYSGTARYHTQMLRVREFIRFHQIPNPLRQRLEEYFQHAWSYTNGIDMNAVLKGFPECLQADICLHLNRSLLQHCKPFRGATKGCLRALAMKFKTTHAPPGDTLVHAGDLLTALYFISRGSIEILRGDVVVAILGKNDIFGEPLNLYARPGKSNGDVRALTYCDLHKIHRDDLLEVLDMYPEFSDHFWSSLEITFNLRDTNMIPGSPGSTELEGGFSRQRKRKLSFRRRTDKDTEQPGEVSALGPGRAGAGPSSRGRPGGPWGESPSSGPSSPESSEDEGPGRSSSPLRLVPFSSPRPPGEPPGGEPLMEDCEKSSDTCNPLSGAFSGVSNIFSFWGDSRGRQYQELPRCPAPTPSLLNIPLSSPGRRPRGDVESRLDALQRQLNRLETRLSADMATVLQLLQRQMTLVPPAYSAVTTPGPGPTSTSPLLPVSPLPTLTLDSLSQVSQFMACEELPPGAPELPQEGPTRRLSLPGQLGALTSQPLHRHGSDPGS
Among all 310,000 compounds or so, about 14,000 (4.5%) showed an effect of 50% or more. Effects have a minus sign here. The entries come from a sample that favours strong results as a whole.
measured.metric: hERG current change (%, negative = inhibition) at 10uM (%)

1) CC(NS(C)(=O)=O)C(c1cccs1)N1CCN(c2ccccc2F)CC1 (stereo not drawn) ... 6.04
2) CCOc1ccc(CN2CCN(CC3CC3)CC2CCO)cc1 (stereo not drawn) ... -67.1
3) CCOc1ccc(CN2CCN(Cc3cc4ccccc4o3)CC2CCO)cc1 (stereo not drawn) ... -80.4
4) Cc1ccc(CN2CCN(Cc3cc4ccccc4o3)CC2CCO)cc1 (stereo not drawn) ... -43.1
5) CC(C)(Oc1ccc(Cl)cc1)C(=O)OCC(=O)N1CCN(c2ccccc2)CC1 ... -7.02
6) CS(=O)(=O)n1nc(-c2ccco2)nc1N ... 20.3

###

molecular target: human ether-à-go-go-related gene (hERG) potassium channel (human, UniProt Q12809); experiment: primary screen, population patch clamp on CHO cells stably expressing hERG; higher = less effect of the substance;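 note: peak tail current of the secondary pulse compared with the same well before compound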
The campaign covered roughly 310,000 compounds. About 14,000 (4.5%) showed an effect of 50% or more. Effects have a minus sign here. What follows is part of a selection rich in strong results, with near analogues and random picks from the rest.
Measured hERG current change (%, negative = inhibition) at 10uM of individual entries
measured.metric: hERG current change (%, negative = inhibition) at 10uM

1. COc1ccccc1N1CCN(Cc2ccco2)CC1.O=C(O)C(=O)O ... -26.4%
2. O=C(Cc1cccs1)N/N=C/C(Br)=C/c1ccccc1 ... 10.1%
3. CCc1cc2c(=O)n(CC(=O)NC3CCCCC3)cnc2s1 ... 4.86%
4. Cc1nc(N=C(N)N)nc2c(C)cccc12 ... 25.2%
5. CCOc1cc(CN2CCCCC2)ccc1OC ... -8.28%
6. CCN(C)Cc1c(C(=O)N2CCc3ccccc3C2)nc2ccc(Cl)cn12 ... -31.1%
7. O=C(c1cc(-c2ccco2)nc2ccccc12)N1CCN(c2ccc(F)cc2)CC1 ... -28.8%
8. CCCCN(C)Cc1c(C(=O)N2CCc3ccccc3C2)nc2ccc(Cl)cn12 ... -50.1%
9. CC(=O)c1c(C)nc(-c2ccc(Cl)cc2)nc1NC(=O)C(C)C ... -9.25%
10. COc1ccccc1N1CCN(Cc2ccc(C(=O)O)cc2)CC1 ... 14.4%
11. CN(Cc1cnccn1)Cc1c(C(=O)N2CCc3ccccc3C2)nc2ccc(Cl)cn12 ... -23.4%
12. Cc1nc2ccn(Cc3ccccc3)c(=O)c2cc1C(=O)N1CCN(c2ccc(F)cc2)CC1 ... -78.5%
13. Cc1ccccc1CN1CCN(Cc2ccccc2)CC1.O=C(O)C(=O)O ... -7.72%
14. CS(=O)(=O)N(Cc1ccccc1)c1ccccc1C(=O)N1CCN(c2ccccc2)CC1 ... -46.6%
15. Oc1ccc(-c2cccc(-c3ccc(O)cc3)n2)cc1 ... 15.5%
16. COc1cccc(N2CCN(C(=O)c3cc4c(=O)n(Cc5ccccc5)ccc4nc3C)CC2)c1 ... -49.8%
17. O=C(c1ccc(Cn2c(=O)[nH]c3ccccc3c2=O)cc1)N1CCN(c2ccc(F)cc2)CC1 ... -15.5%
18. Cc1nc2ccn(Cc3ccccc3)c(=O)c2cc1C(=O)N1CCN(c2ccccc2)CC1 ... -74%
19. COc1ccc(Cn2c(=O)[nH]c3cc(C(=O)N4CCN(c5ccccc5)CC4)ccc3c2=O)cc1 ... 9.23%
20. CN1CCN(Cc2c(C(=O)N3CCc4ccccc4C3)nc3ccc(Cl)cn23)CC1 ... -51.8%
